// data source = patent US4180588A

Test: Cytotoxic effect on the murine spleen cells, trypane-blue dye exclusion
Assay type: cell-based
Conditions: mouse, spleen cells, concentration 100 (unit inferred); 48 hours; 86 at 0
measured_quantity: viability at 48 h (%)
Numbers only, in %.

Incoming: I'd like to know its viability at 48 h. The molecule in question is `N[C@@H](CCC(=O)Nc1ccc(O)cc1)C(=O)O`
Outgoing: 87
